Parameter IC50: see the listing below.
System: KB
Test: Cytotoxicity against vincristine-sensitive human KB cells
Format: functional, cell-based

C[C@H](O)C1=CN2[C@H]3C[C@H]1[C@@H](CO)[C@@H]2C[C@@]31C(=O)N(C)c2ccccc21    > 25 µg/mL
C[C@@H]1OC[C@@H]2[C@H]3C[C@H]4c5c(c6ccccc6n5C)C[C@@H]2N4[C@H](O)[C@H]31    > 25 µg/mL
C/C=C1/CN2CC[C@@]3(O)c4ccccc4N4[C@H](C(=O)OC)[C@H]1C[C@H]2[C@@H]43    > 25 µg/mL
CC(=O)O[C@@H]1[C@@H]2[C@@H]3C[C@H]4c5c(c6ccccc6n5C)C[C@@H]([C@@H]3CO[C@H]2C)N14    > 25 µg/mL
C[C@H](O)C1=CN2[C@H]3C[C@H]1[C@@H](CO)[C@@H]2Cc1c3n(C)c2ccccc12    > 25 µg/mL

Asked: Which IC50 is listed for C/C=C1/CN2[C@H]3C[C@H]1C(CO)[C@@H]2C[C@]31Nc2ccccc2C1=O (some centres not stated) ?
Given back: > 25 µg/mL

Asked: Which IC50 is listed for `C[C@@H]1OC[C@@H]2[C@@H](C[C@H]3c4c(c5ccccc5n4C)C[C@@H]2N3C)[C@@H]1C=O` ?
Given back: > 25 µg/mL

Every entry's value here was drawn from ChEMBL document CHEMBL3351669.
